tested on: Vero E6 infected with SARS-CoV-2; assay: SARS-CoV-2 infection rate relative to infected DMSO; higher = more infection, active = 60 or less; details: 24 h
property measured: SARS-CoV-2 infection rate (%)
Give a bare numeral; the unit % is implied.

Consider the worked cases shown below.
molecule | property measured | reported
CC(C)(C)S(=O)(=O)N[C@H]1CC[C@H](C(=O)Nc2ccc(C(F)(F)F)cn2)CC1 [velneperit] (10 µM) | SARS-CoV-2 infection rate | 115
CC[C@H](C)C(=O)O[C@H]1C[C@H](O)C=C2C=C[C@H](C)[C@H](CC[C@@H](O)C[C@@H](O)CC(=O)O)[C@H]21 (10 µM) | SARS-CoV-2 infection rate | 106

QUERY: Looking for the measured SARS-CoV-2 infection rate of COc1ccc(OC)c2c(=S)c3ccccc3[nH]c12 (10 µM) , can you help?
RESULT: 106

QUERY: Looking for the measured SARS-CoV-2 infection rate of CN1[C@@H]2CC[C@H]1C[C@@H](OC(c1ccccc1)c1ccccc1)C2 [benztropine-mesylate] (10 µM) , can you help?
RESULT: 84.5

QUERY: Looking for the measured SARS-CoV-2 infection rate of C[C@H]1CO[C@@H]2Cn3cc(C(=O)NCc4ccc(F)cc4F)c(=O)c(O)c3C(=O)N12 (10 µM) , can you help?
RESULT: 108

QUERY: Looking for the measured SARS-CoV-2 infection rate of CC(C)C[C@H](NC(=O)[C@@H](O)[C@H](N)Cc1ccccc1)C(=O)O [ubenimex] (10 µM) , can you help?
RESULT: 96

QUERY: Looking for the measured SARS-CoV-2 infection rate of COC(=O)C1=C(C)NC(C)=C(C(=O)OC2CCCN(Cc3ccccc3)C2)C1c1cccc([N+](=O)[O-])c1 (configuration not stated) [benidipine] (10 µM) , can you help?
RESULT: 102

QUERY: Looking for the measured SARS-CoV-2 infection rate of CCCC(=O)Nc1ncnc2c1ncn2[C@@H]1O[C@@H]2COP(=O)(O)O[C@H]2[C@H]1OC(=O)CCC [bucladesine] (10 µM) , can you help?
RESULT: 104

QUERY: Looking for the measured SARS-CoV-2 infection rate of c1ccc2nc(C3=NCCN3)ccc2c1 (10 µM) , can you help?
RESULT: 93

QUERY: Looking for the measured SARS-CoV-2 infection rate of OCCN1CCN(CCCN2c3ccccc3Sc3ccc(Cl)cc32)CC1 [perphenazine] (0.833333 µM) , can you help?
RESULT: 109

QUERY: Looking for the measured SARS-CoV-2 infection rate of COc1cc(N)c(Cl)cc1C(=O)NC1CN2CCC1CC2 (configuration not stated) [zacopride] (10 µM) , can you help?
RESULT: 89

QUERY: Looking for the measured SARS-CoV-2 infection rate of COc1ccc(C2CNC(=O)NC2)cc1O[C@H]1C[C@@H]2CC[C@H]1C2 [atizoram] (10 µM) , can you help?
RESULT: 93.5

QUERY: Looking for the measured SARS-CoV-2 infection rate of C[C@@H]1CN(CC(=O)Nc2ccc3c(c2)Cc2cccc(-c4cc(=O)cc(N5CCOCC5)o4)c2S3)C[C@H](C)O1 (10 µM) , can you help?
RESULT: 60

QUERY: Looking for the measured SARS-CoV-2 infection rate of N#Cc1ccc(Cn2cncc2CN2CCN(c3cccc(Cl)c3)C(=O)C2)cc1 (10 µM) , can you help?
RESULT: 95

QUERY: Looking for the measured SARS-CoV-2 infection rate of CC(C(=O)O)c1ccc(C(=O)c2cccs2)cc1 (configuration not stated) [suprofen] (10 µM) , can you help?
RESULT: 108

QUERY: Looking for the measured SARS-CoV-2 infection rate of COc1ccccc1N1CCN(CCCCN2C(=O)c3ccccc3C2=O)CC1 (10 µM) , can you help?
RESULT: 99

QUERY: Looking for the measured SARS-CoV-2 infection rate of COc1cccc([C@@H](C)NCCCc2ccccc2Cl)c1 [tecalcet] (10 µM) , can you help?
RESULT: 50.5
